# target entity: calcium channel (Oryctolagus cuniculus)
# Construct: from tissue; host or cells: rabbit heart membrane preparation
# Sequence (P15381 whole entry, other chains not shown): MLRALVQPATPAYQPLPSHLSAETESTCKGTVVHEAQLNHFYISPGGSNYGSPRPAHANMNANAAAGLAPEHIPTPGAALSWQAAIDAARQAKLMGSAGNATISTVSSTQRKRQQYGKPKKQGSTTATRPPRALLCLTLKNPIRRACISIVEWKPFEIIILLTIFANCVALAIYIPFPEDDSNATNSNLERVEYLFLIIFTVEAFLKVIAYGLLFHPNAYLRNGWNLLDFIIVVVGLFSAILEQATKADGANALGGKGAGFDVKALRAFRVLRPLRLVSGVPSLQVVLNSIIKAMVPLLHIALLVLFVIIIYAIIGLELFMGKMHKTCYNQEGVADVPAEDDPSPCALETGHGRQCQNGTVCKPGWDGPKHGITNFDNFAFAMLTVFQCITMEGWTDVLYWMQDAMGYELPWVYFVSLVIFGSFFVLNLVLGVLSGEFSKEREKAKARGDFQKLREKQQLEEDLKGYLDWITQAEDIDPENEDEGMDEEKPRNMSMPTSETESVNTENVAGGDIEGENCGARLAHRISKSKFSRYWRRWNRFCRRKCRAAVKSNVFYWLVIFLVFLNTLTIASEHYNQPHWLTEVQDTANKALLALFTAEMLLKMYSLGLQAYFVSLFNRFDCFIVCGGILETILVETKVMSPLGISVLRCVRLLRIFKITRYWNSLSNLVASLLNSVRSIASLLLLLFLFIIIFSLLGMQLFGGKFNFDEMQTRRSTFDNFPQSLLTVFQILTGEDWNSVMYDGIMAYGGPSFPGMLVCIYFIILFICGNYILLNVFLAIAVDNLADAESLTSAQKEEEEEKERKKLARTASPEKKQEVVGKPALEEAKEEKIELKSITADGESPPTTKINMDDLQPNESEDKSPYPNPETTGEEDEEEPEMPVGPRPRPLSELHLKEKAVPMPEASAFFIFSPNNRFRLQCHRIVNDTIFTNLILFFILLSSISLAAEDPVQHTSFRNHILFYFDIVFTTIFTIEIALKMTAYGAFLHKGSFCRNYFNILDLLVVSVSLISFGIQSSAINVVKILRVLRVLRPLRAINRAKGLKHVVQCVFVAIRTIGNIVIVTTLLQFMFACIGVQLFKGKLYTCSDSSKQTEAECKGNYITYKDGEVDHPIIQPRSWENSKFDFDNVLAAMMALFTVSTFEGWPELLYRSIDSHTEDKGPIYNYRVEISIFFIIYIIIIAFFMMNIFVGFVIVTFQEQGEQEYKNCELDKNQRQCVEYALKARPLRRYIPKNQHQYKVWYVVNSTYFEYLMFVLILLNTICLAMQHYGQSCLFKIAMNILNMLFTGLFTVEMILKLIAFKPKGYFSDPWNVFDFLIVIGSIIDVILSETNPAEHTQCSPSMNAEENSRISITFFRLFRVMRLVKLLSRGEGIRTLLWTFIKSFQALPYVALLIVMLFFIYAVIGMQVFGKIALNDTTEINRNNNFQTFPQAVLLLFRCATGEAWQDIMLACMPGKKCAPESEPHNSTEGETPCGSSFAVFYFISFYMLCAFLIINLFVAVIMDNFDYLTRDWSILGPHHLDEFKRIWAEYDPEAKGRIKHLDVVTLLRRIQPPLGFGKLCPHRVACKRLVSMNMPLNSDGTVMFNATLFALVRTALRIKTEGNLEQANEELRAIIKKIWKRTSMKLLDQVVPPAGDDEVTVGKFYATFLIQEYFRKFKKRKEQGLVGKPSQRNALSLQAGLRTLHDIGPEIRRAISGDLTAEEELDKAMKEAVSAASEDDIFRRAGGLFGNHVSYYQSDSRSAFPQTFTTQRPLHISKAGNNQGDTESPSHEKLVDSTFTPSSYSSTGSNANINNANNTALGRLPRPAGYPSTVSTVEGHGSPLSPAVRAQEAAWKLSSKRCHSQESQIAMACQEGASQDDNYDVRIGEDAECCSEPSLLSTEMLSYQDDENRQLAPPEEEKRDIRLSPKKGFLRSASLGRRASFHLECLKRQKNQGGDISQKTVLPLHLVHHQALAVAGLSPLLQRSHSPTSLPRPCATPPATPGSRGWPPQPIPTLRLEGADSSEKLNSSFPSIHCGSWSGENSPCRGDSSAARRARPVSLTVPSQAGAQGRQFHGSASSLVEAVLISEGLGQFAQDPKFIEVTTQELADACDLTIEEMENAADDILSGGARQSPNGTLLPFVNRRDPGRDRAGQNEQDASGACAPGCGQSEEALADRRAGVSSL
# Sequence (P13806 27-960 partner limits assumed, other chains not shown): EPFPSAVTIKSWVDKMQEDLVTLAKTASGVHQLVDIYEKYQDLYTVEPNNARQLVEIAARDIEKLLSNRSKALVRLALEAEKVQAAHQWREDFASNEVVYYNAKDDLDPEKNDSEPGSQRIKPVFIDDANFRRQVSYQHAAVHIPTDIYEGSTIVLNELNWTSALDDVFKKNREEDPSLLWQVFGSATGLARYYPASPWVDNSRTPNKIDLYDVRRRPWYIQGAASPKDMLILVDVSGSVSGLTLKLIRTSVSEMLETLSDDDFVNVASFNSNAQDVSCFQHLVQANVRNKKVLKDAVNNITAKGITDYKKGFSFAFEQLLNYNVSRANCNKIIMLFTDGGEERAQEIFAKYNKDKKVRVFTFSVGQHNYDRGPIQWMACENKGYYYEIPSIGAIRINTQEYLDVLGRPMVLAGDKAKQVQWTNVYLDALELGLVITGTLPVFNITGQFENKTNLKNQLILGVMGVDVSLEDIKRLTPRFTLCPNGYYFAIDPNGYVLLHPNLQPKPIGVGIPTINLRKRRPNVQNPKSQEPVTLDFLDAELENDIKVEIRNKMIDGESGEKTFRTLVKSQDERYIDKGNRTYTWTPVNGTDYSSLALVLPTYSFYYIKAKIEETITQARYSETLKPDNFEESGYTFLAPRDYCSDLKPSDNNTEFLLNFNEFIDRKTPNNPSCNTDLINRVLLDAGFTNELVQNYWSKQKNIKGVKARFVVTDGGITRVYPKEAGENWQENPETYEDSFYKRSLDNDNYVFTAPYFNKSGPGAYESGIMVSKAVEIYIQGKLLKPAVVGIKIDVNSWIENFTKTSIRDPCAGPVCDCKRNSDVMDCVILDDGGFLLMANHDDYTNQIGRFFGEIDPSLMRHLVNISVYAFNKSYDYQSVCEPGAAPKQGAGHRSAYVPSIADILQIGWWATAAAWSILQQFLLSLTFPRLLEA
# Sequence (P13806 961-1106 partner limits assumed, other chains not shown): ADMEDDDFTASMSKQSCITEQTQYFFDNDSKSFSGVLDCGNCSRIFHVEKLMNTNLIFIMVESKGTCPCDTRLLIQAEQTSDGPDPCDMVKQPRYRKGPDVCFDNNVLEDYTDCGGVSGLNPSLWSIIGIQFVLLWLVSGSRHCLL
# protocol text: Assay for Inhibition of Nitrendipine Binding (3H-nitrendipine, heart membranes)
# conditions: 3H-nitrendipine displacement, rabbit heart membranes; Tables 6-7
The threshold is 200 nM. Values of IC50 beneath it are tagged Met; values meeting or exceeding it are tagged Not met.

Examples with answers:
| molecule | class assignment |
| --- | --- |
| CC1=C(C(=O)OCCNC(=O)c2ccccc2)C(c2c(F)cccc2Cl)C2=C(CS(=O)(=O)CCS2(=O)=O)N1 (centres unmarked) | Not met |
| CCN(CC)C(=O)COC(=O)C1=C(C)NC2=C(C1c1c(F)cccc1Cl)S(=O)(=O)CCS(=O)(=O)C2 (centres unmarked) | Not met |
| CC1=C(C(=O)OCCOC(=O)C2CCCCC2)C(c2c(F)cccc2Cl)C2=C(CS(=O)(=O)CCS2(=O)=O)N1 (centres unmarked) | Met |
| CC1=C(C(=O)OCC(=O)Oc2ccccc2)C(c2c(F)cccc2Cl)C2=C(CS(=O)(=O)CCS2(=O)=O)N1 (centres unmarked) | Not met |
| CC1=C(C(=O)OCCOC(=O)c2ccc(OC(C)C)cc2)C(c2c(F)cccc2Cl)C2=C(CS(=O)(=O)CCCS2(=O)=O)N1 (centres unmarked) | Met |

Req: I'd appreciate it if you could check whether CC1=C(C(=O)OCC(=O)OCCN(C)Cc2ccccc2)C(c2c(F)cccc2Cl)C2=C(CS(=O)(=O)CCS2(=O)=O)N1 (centres unmarked) has IC50 smaller than 200 nM.
Resp: Not met

Req: A record lists CC1=C(C(=O)OCCOC(=O)C(C)C)C(c2c(F)cccc2Cl)C2=C(CS(=O)(=O)CCS2(=O)=O)N1 (centres unmarked) [Compound 57] . Is its IC50 below 200 nM?
Resp: Met

Req: Strictly below 200 nM: is that where IC50 of CC1=C(C(=O)OCCOC(=O)c2ccc(C#N)cc2)C(c2c(F)cccc2Cl)C2=C(CS(=O)(=O)CCS2(=O)=O)N1 (centres unmarked) sits?
Resp: Met

---

# target entity: calcium channel (Oryctolagus cuniculus)
# Construct: from tissue; host or cells: rabbit heart membrane preparation
# protocol text: Assay for Inhibition of Nitrendipine Binding (3H-nitrendipine, heart membranes)
# conditions: 3H-nitrendipine displacement, rabbit heart membranes; Tables 6-7
experimental endpoint: pIC50
Numbers only, as −log10 of the molar value.

Please review the entries below; each comes with its answer.
| compound | assay result |
| --- | --- |
| CC1=C(C(=O)OCCOC(=O)C(N)CCCCN)C(c2c(F)cccc2Cl)C2=C(CS(=O)(=O)CCS2(=O)=O)N1 (stereo not shown) [Compound 96] | 4.29 |
| CC1=C(C(=O)OCCOC(=O)CN(C)C(=O)c2ccccc2)C(c2c(F)cccc2Cl)C2=C(CS(=O)(=O)CCS2(=O)=O)N1 (stereo not shown) [Compound 58] | 6.82 |
| CC1=C(C(=O)OCCOC(=O)CN)C(c2c(F)cccc2Cl)C2=C(CS(=O)(=O)CCS2(=O)=O)N1 (stereo not shown) [Compound 97] | 3.82 |

Lab note: CC1=C(C(=O)OCC(=O)O)C(c2c(F)cccc2Cl)C2=C(CS(=O)(=O)CCS2(=O)=O)N1 (stereo not shown) [Compound 98] gave pIC50 of 3.50

---

Kindly state log10 IC50 for each of the entries shown.
# target entity: calcium channel (Oryctolagus cuniculus)
# Construct: from tissue; host or cells: rabbit heart membrane preparation
# protocol text: Assay for Inhibition of Nitrendipine Binding (3H-nitrendipine, heart membranes)
# conditions: 3H-nitrendipine displacement, rabbit heart membranes; Tables 6-7
A difference of one corresponds to tenfold IC50; all values are log10 with IC50 in nM.

See these solved cases before continuing.
| compound | target entity | log10 IC50 |
| --- | --- | --- |
| CC1=C(C(=O)OCC(=O)OCc2ccccc2)C(c2c(F)cccc2Cl)C2=C(CS(=O)(=O)CCS2(=O)=O)N1 (stereo not drawn) [Compound 66] | calcium channel (Oryctolagus cuniculus) | 2.45 |
| CC1=C(C(=O)OCC(=O)OCCc2ccccc2)C(c2c(F)cccc2Cl)C2=C(CS(=O)(=O)CCS2(=O)=O)N1 (stereo not drawn) [Compound 59] | calcium channel (Oryctolagus cuniculus) | 2.19 |
| CC1=C(C(=O)OCCOC(=O)C(N)C(C)C)C(c2c(F)cccc2Cl)C2=C(CS(=O)(=O)CCS2(=O)=O)N1 (stereo not drawn) [Compound 92] | calcium channel (Oryctolagus cuniculus) | 3.76 |
| CC1=C(C(=O)OCCCOC(=O)C(C)C)C(c2c(F)cccc2Cl)C2=C(CS(=O)(=O)CCS2(=O)=O)N1 (stereo not drawn) [Compound 62] | calcium channel (Oryctolagus cuniculus) | 2.25 |
| CC(=O)OCCCOC(=O)C1=C(C)NC2=C(C1c1c(F)cccc1Cl)S(=O)(=O)CCS(=O)(=O)C2 (stereo not drawn) [Compound 86] | calcium channel (Oryctolagus cuniculus) | 3.33 |

Result for CC1=C(C(=O)OCCCCOC(=O)c2ccccc2)C(c2c(F)cccc2Cl)C2=C(CS(=O)(=O)CCS2(=O)=O)N1 (stereo not drawn) [Compound 49] , tested on calcium channel (Oryctolagus cuniculus), log10 IC50: 1.76
